- Experiment: Weight loss before melting (TGA) of solid forms
- Format: physicochemical
Structures can show the parent of a compound that is named as a salt.
Readout name: Weight loss before melting (%) (TGA) (wt %)

Consider the reported Weight loss before melting (%) (TGA) for these compounds:
compound="CN(C)C/C=C/C(=O)Nc1cccc(-c2c(-c3ccccc3)oc3ncnc(NC(CO)c4ccccc4)c23)c1 (stereo not shown) [Glycollate]" readout_name="Weight loss before melting (%) (TGA)" meas_value=0.7
compound="CN(C)C/C=C/C(=O)Nc1cccc(-c2c(-c3ccccc3)oc3ncnc(NC(CO)c4ccccc4)c23)c1 (stereo not shown) [Succinate]" readout_name="Weight loss before melting (%) (TGA)" meas_value=0.5

I = CN(C)C/C=C/C(=O)Nc1cccc(-c2c(-c3ccccc3)oc3ncnc(N[C@H](CO)c4ccccc4)c23)c1 [Free Base]
II = CN(C)C/C=C/C(=O)Nc1cccc(-c2c(-c3ccccc3)oc3ncnc(NC(CO)c4ccccc4)c23)c1 (stereo not shown) [Hydrochloride]
Could you determine which record has the numerically smaller Weight loss before melting (%) (TGA)? Candidates: I and II Pick one; state its label. I
(I: 0.6 wt %, II: 3.6 wt %)

###

- Experiment: Pharmacokinetics study, rat IV and PO
- Type: in vivo
- Cond: rat, in vivo, po, 20 mg/kg
Readout name: half-life (h)
State just the number; it will be interpreted in h.

Fill in the blank: the reported half-life of CN(C)C/C=C/C(=O)Nc1cccc(-c2c(-c3ccccc3)oc3ncnc(N[C@H](CO)c4ccccc4)c23)c1 [ABT-101 S0] is ____. 4.7

###

- Experiment: Pharmacokinetics study, rat IV and PO
- Format: in vivo
- Cond: rat, in vivo, po, 20 mg/kg, read-out: Tmax
Readout name: Tmax (h)
State just the number; it will be interpreted in h.

Fill in the blank: the reported Tmax of CN(C)C/C=C/C(=O)Nc1cccc(-c2c(-c3ccccc3)oc3ncnc(N[C@H](CO)c4ccccc4)c23)c1 [ABT-101 S0] is ____. 4

###

- Experiment: Solubility 24 hrs in FaSSIF, FeSSIF, SGF, H2O
- Format: physicochemical
- Cond: water, thermodynamic from solid, H2O
- Source text: In Table 3, “FaSSIF” stands for “Fasted state simulated intestinal fluid”; “FeSSIF” stands for “Fed state simulated intestinal fluid”; “SGF” stands for “Simulated gastric fluid”.
Readout name: solubility at 24 h (mg/mL)
State just the number; it will be interpreted in mg/mL.

Fill in the blank: the reported solubility at 24 h of CN(C)C/C=C/C(=O)Nc1cccc(-c2c(-c3ccccc3)oc3ncnc(N[C@H](CO)c4ccccc4)c23)c1 [Free Base] is ____. 0.02

###

- Experiment: Solubility 24 hrs in FaSSIF, FeSSIF, SGF, H2O
- Type: physicochemical
- Cond: SGF (simulated gastric fluid), simulated gastric fluid, thermodynamic from solid, SGF
- Excerpt: In Table 3, “FaSSIF” stands for “Fasted state simulated intestinal fluid”; “FeSSIF” stands for “Fed state simulated intestinal fluid”; “SGF” stands for “Simulated gastric fluid”.
Readout name: solubility at 24 h (µg/mL)
State just the number; it will be interpreted in µg/mL.

Fill in the blank: the reported solubility at 24 h of CN(C)C/C=C/C(=O)Nc1cccc(-c2c(-c3ccccc3)oc3ncnc(N[C@H](CO)c4ccccc4)c23)c1 [Free Base] is ____. 9100

###

- Experiment: Stability of solid forms under stress conditions
- Type: physicochemical
- Cond: 40° C./75% RH, 1 week
Structures can show the parent of a compound that is named as a salt.
Readout name: Stability

compound="CN(C)C/C=C/C(=O)Nc1cccc(-c2c(-c3ccccc3)oc3ncnc(NC(CO)c4ccccc4)c23)c1 (stereo not shown) [Glycollate]" readout_name=Stability meas_value=Unstable
compound="CN(C)C/C=C/C(=O)Nc1cccc(-c2c(-c3ccccc3)oc3ncnc(NC(CO)c4ccccc4)c23)c1 (stereo not shown) [Hydrochloride]" readout_name=Stability meas_value=Stable
compound="CN(C)C/C=C/C(=O)Nc1cccc(-c2c(-c3ccccc3)oc3ncnc(NC(CO)c4ccccc4)c23)c1 (stereo not shown) [Succinate]" readout_name=Stability meas_value=Unstable
compound="CN(C)C/C=C/C(=O)Nc1cccc(-c2c(-c3ccccc3)oc3ncnc(N[C@H](CO)c4ccccc4)c23)c1 [Free Base]" readout_name=Stability meas_value=Stable

###

- Experiment: Solubility 24 hrs in FaSSIF, FeSSIF, SGF, H2O
- Format: physicochemical
- Cond: FaSSIF (fasted state simulated intestinal fluid), fassif, thermodynamic from solid
Readout name: solubility at 24 h (µg/mL)
State just the number; it will be interpreted in µg/mL.

Fill in the blank: the reported solubility at 24 h of CN(C)C/C=C/C(=O)Nc1cccc(-c2c(-c3ccccc3)oc3ncnc(N[C@H](CO)c4ccccc4)c23)c1 [Free Base] is ____. 320

The measurements presented in this section are drawn from patent US12240858B2.
